System: SpTbr T-box DNA-binding domain (GST fusion);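 also: protein at 200 nM in PBS on universal double-stranded arrays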
Sequence: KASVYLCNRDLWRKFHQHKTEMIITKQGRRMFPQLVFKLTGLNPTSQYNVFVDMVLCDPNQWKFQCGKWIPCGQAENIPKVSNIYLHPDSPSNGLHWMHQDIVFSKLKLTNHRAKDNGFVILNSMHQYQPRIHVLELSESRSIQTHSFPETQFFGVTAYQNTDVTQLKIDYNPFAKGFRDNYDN
Assay: PBM E-score of 8-mer (E-score (dimensionless, -0.5 to 0.5)); Tbr is Tbrain of the sea star Patiria miniata (Pm) or the sea urchin Strongylocentrotus purpuratus (Sp); higher = stronger binding preference
Conditions: the construct has about 5 more residues each side
Whole data set: some 33,000 sequences, median “E-score (dimensionless, -0.5 to 0.5)” near -0.046, cut for the highest 2% near 0.36. The full list was thinned out, with the highest values kept by preference.
Attribute Measured: PBM E-score of 8-mer

| Query Sequence | Target | Obs Value |
| --- | --- | --- |
| ACACCGGT | SpTbr T-box DNA-binding domain (GST fusion) | 0.246 |
| ACACCTAT | SpTbr T-box DNA-binding domain (GST fusion) | 0.459 |
| AAACCTAG | SpTbr T-box DNA-binding domain (GST fusion) | 0.0536 |
| ATCAATCC | SpTbr T-box DNA-binding domain (GST fusion) | -0.172 |
| ACACCTGT | SpTbr T-box DNA-binding domain (GST fusion) | 0.467 |
| ACACCTAG | SpTbr T-box DNA-binding domain (GST fusion) | 0.444 |
| TCACCTAA | SpTbr T-box DNA-binding domain (GST fusion) | 0.301 |
| GCGCTGTA | SpTbr T-box DNA-binding domain (GST fusion) | 0.206 |
| GGGGTAAC | SpTbr T-box DNA-binding domain (GST fusion) | -0.0298 |
| CGCTTTAA | SpTbr T-box DNA-binding domain (GST fusion) | -0.169 |
| CAGAGAGA | SpTbr T-box DNA-binding domain (GST fusion) | -0.036 |
| ACCGTTCA | SpTbr T-box DNA-binding domain (GST fusion) | 0.027 |
| AGACCTAT | SpTbr T-box DNA-binding domain (GST fusion) | -0.142 |
| GTGGCCGA | SpTbr T-box DNA-binding domain (GST fusion) | 0.0547 |
| AAACCTGT | SpTbr T-box DNA-binding domain (GST fusion) | 0.0331 |
| ATATGTTG | SpTbr T-box DNA-binding domain (GST fusion) | -0.00329 |
| GCACCTAA | SpTbr T-box DNA-binding domain (GST fusion) | 0.339 |
| GTGTGTTA | SpTbr T-box DNA-binding domain (GST fusion) | 0.318 |
| AAACTACA | SpTbr T-box DNA-binding domain (GST fusion) | 0.014 |
| GACCACTC | SpTbr T-box DNA-binding domain (GST fusion) | 0.0231 |
| AATGAGGA | SpTbr T-box DNA-binding domain (GST fusion) | -0.334 |
| GGTTATAC | SpTbr T-box DNA-binding domain (GST fusion) | 0.0871 |
